# assay details: solvent given as SMILES
# conditions used: in CC#N
Measured fluorescence lifetime by item
Entry rule: numbers only, all in ns.

compound	unit of measurement	val
CC1=[N+]2C(=C(c3ccccc3)c3ccc(C)n3[B-]2(F)F)C=C1	ns	1.33
O=S1(=O)c2ccccc2-c2cc(-c3c4ccccc4cc4ccccc34)ccc21	ns	3.8
COc1cc(/C=C2/SC(=O)NC2=O)ccc1O	ns	0.291
COc1cc(OC)cc(-c2ccc(-c3ccc(C#N)s3)s2)c1	ns	0.24

Exercise: # input compound: `CCOc1cc2c(cc1/C=C/C(=C(C#N)C#N)c1ccccc1)c1ccccc1n2CC` ; wanted: its fluorescence lifetime
Solution: 5.72

Exercise: Moving on to the next compound: `c1cc2ccc3cccc4c(-c5cc(-c6nccs6)nc(-c6nccs6)c5)cc(c1)c2c34`
Solution: 2.9

Exercise: Moving on to the next compound: `CN(C)c1ccc2nc(/C=C/c3cc4c5c(c3)CCCN5CCC4)c(=O)oc2c1`
Solution: 0.22

Exercise: Moving on to the next compound: `O=C1CCCC2=C1CC1=C(CCCC1=O)N2NC(=O)c1ccc(O)cc1`
Solution: 6.2

Exercise: Moving on to the next compound: `Cc1cc(-c2ccccc2)cc(C)[o+]1`
Solution: 12.1

Exercise: Moving on to the next compound: `COc1ccc(C2=CC(c3ccc4ccccc4c3)=[O+][B-](C(C)=O)(C(C)=O)O2)cc1`
Solution: 3

###

# assay details: solvent given as SMILES
# conditions used: in CO
Class key for fluorescence lifetime values: lo = under 0.8 ns, mid = from 0.8 ns up to 5 ns, hi = 5 ns and over

Please review the entries below; each comes with its answer.
molecule	class
COc1c2ccccc2c(OC)c2c1c1ccc(C(F)(F)F)cc1n2C	hi
COC(=O)C(Cc1ccc2oc(-c3ccncc3)nc2c1)NC(=O)OC(C)(C)C (centres undefined)	mid
Cc1cc(C(F)(F)F)nc2c1ccc1nc(-c3ccc(Cl)cc3)cn12	hi
CCN1\C(=C/C=C/C=C/C2=[N+](CC)c3ccc4cc(Br)ccc4c3C2(C)C)C(C)(C)c2c1ccc1cc(Br)ccc21	mid

Exercise: # classify by fluorescence lifetime band: COC(=O)C([NH3+])Cc1ccc2oc(-c3ccncc3)nc2c1 (centres undefined)
Solution: lo

Exercise: Moving on to the next molecule: `O=C(O)CCCOc1cc2ccc3cccc4ccc(c1)c2c34`
Solution: hi

Exercise: Moving on to the next molecule: `Cc1ccc2sc3cc(CCC(=O)O)ccc3c(=O)c2c1`
Solution: mid

Exercise: Moving on to the next molecule: `CCCCCCCCCCCCCCCCN(CCCCCCCCCCCCCCCC)c1ccc(/C=C/c2cc[n+](Cc3cc(C[n+]4ccc(/C=C/c5ccc(N(CCCCCCCCCCCCCCCC)CCCCCCCCCCCCCCCC)cc5)cc4)cc(C[n+]4ccc(/C=C/c5ccc(N(CCCCCCCCCCCCCCCC)CCCCCCCCCCCCCCCC)cc5)cc4)c3)cc2)cc1`
Solution: lo

Exercise: Moving on to the next molecule: `O=C([O-])c1ccccc1-c1c2ccc(=O)cc-2oc2cc([O-])ccc12`
Solution: mid

Exercise: Moving on to the next molecule: `CCCCc1ccc2ccc3c(CCCC)ccc4ccc1c2c43`
Solution: hi

Exercise: Moving on to the next molecule: `COc1ccc(-c2cc(-c3ccc(C)cc3)nc3c(C#N)c(N4CCCC4)nc(N)c23)cc1`
Solution: hi

Exercise: Moving on to the next molecule: `Nc1ccc2c3c(cccc13)C(=O)c1ccccc1-2`
Solution: mid

Exercise: Moving on to the next molecule: `CC1=CC(C)=[N+]2C1=Cc1ccc(CCC(=O)ON3C(=O)CCC3=O)n1[B-]2(F)F`
Solution: hi

Exercise: Moving on to the next molecule: `N#Cc1coc2ccccc2c1=O`
Solution: lo

Exercise: Moving on to the next molecule: CN(CC(O)c1cccc(O)c1)c1ccc([N+](=O)[O-])c(C2CC(c3cccc4ccccc34)=NN2c2ccccc2)c1 (centres undefined)
Solution: mid

Exercise: Moving on to the next molecule: `COc1cc(/C=C/C(=O)CC(=O)/C=C/c2ccc(O)c(OC)c2)ccc1O`
Solution: lo

Exercise: Moving on to the next molecule: `N#Cc1ccc(C[C@H](N)C(=O)O)cc1`
Solution: hi

Exercise: Moving on to the next molecule: `CCOC(=O)CCCCCn1c2ccc(F)cc2c(=O)c2cc3c(cc21)c(=O)c1cc(F)ccc1n3CCCCCC(=O)OCC`
Solution: hi

Exercise: Moving on to the next molecule: `COCCOCCOCCN1C(=O)c2cc(NCCOCCO)c3c4c(cc(NCCOCCO)c(c24)C1=O)C(=O)N(CCOCCOCCOC)C3=O`
Solution: hi

Exercise: Moving on to the next molecule: COC(=O)C(NC(=O)OC(C)(C)C)c1ccc2oc(-c3ccc(OC(=O)c4ccccc4)cc3OC(=O)c3ccccc3)nc2c1 (centres undefined)
Solution: lo

Exercise: Moving on to the next molecule: Cc1c2oc3c(C)c(N)cc(C(=O)NC4OC(=O)C(C(C)C)N(C)C(=O)CN(C)C(=O)C5CCCN5C(=O)C(C(C)C)NC4=O)c3nc-2c(C(=O)NC2OC(=O)C(C(C)C)N(C)C(=O)CN(C)C(=O)C3CCCN3C(=O)C(C(C)C)NC2=O)c(N)c1=O (centres undefined)
Solution: lo

Exercise: Moving on to the next molecule: `CNC1=C2C=CC=[N+]2[B-](F)(F)n2cccc21`
Solution: lo

Exercise: Moving on to the next molecule: `CN1C(=CC2=C([O-])C(=CC3=[N+](C)c4ccc(Cl)cc4C3(C)C)C2=O)C(C)(C)c2cc(Cl)ccc21`
Solution: lo

Exercise: Moving on to the next molecule: `CC1(C)C(/C=C/C2=C(Cl)C(=C/C=C3/N(CCCS(=O)(=O)[O-])c4ccccc4C3(C)C)/CCC2)=[N+](CCCS(=O)(=O)[O-])c2ccccc21`
Solution: lo

Exercise: Moving on to the next molecule: `CC1(C)CC(/N=C/c2ccc3ccc4cccc5ccc2c3c45)CC(C)(C)N1`
Solution: mid

Exercise: Moving on to the next molecule: `Cc1ccc(C2=C3C=CC=[N+]3[B-](F)(F)n3cccc32)cc1`
Solution: lo

Exercise: Moving on to the next molecule: `N#Cc1cc(-c2ccc(F)cc2)cnc1O`
Solution: hi

Exercise: Moving on to the next molecule: `CN(C)c1ccc(/C=C/c2cc[n+](CCCOCC(COCCC[n+]3ccc(/C=C/c4ccc(N(C)C)cc4)cc3)(COCCC[n+]3ccc(/C=C/c4ccc(N(C)C)cc4)cc3)COCCC[n+]3ccc(/C=C/c4ccc(N(C)C)cc4)cc3)cc2)cc1`
Solution: lo

Exercise: Moving on to the next molecule: `COc1ccc(C2=C3C(C)=CC(C)=[N+]3[B-](F)(F)n3c(/C=C/c4ccc(N(C)C)cc4)cc(C)c32)cc1`
Solution: mid

Exercise: Moving on to the next molecule: `COc1ccc2cc3c(C)cc(=O)oc3cc2c1`
Solution: hi

###

# assay details: solvent given as SMILES
# conditions used: in Cc1ccccc1
quantity name: log10 fluorescence lifetime (log10 of the value in ns)
Note the log scale: values are log10 of fluorescence lifetime expressed in ns.

compound	log10 fluorescence lifetime
CN(C)c1ccc(/C=C2\CC/C(=C\c3ccc(C#N)cc3)C2=O)cc1	-0.25
COc1ccc(C2=CC(c3ccccc3)=[N+]3C2=Nc2c(-c4ccc(OC)cc4)cc(-c4ccccc4)n2[B-]3(F)F)cc1	0.19
CC(C)(C)c1ccc(C(C)(C)C)c(N2C(=O)c3cccc4c(-c5ccc(-c6ccc(N(c7ccccc7)c7ccccc7)cc6)s5)ccc(c34)C2=O)c1	0.41
N#Cc1c(-n2c3ccc(Cl)cc3c3cc(Cl)ccc32)c(C#N)c(-n2c3ccc(Cl)cc3c3cc(Cl)ccc32)c(-n2c3ccc(Cl)cc3c3cc(Cl)ccc32)c1-n1c2ccc(Cl)cc2c2cc(Cl)ccc21	-0.40
CCCCCCC(CCCCCC)N1C(=O)c2cccc3c(-c4cc(OC)c(OC)c(OC)c4)ccc(c23)C1=O	0.73
COc1ccc(C2=C(c3ccccc3)C(c3ccccc3)=[N+]3C2=Nc2c(-c4ccc(OC)cc4)c(-c4ccccc4)c(-c4ccccc4)n2[B-]3(F)F)cc1	-0.59
COC(=O)C(Cc1ccc2oc(-c3ccc(N(C)c4ccccc4)cc3)nc2c1)NC(=O)OC(C)(C)C (centres undefined)	0.45
c1ccc(Cn2c3sccc3c3c4nsnc4c4c5ccsc5n(Cc5ccccc5)c4c32)cc1	1.13
N#Cc1c(-n2c3ccc(-c4ccccc4)cc3c3cc(-c4ccccc4)ccc32)c(-n2c3ccc(-c4ccccc4)cc3c3cc(-c4ccccc4)ccc32)c(C#N)c(-n2c3ccc(-c4ccccc4)cc3c3cc(-c4ccccc4)ccc32)c1-n1c2ccc(-c3ccccc3)cc2c2cc(-c3ccccc3)ccc21	0.95
CN(C)c1ccc(C2=Nc3sc4ccccc4[n+]3[B-](F)(F)O2)cc1	0.24

Exercise: # input compound: `C(=C\c1ccc(N(c2ccccc2)c2ccccc2)cc1)/c1ccc(/C=C/c2ccc(N(c3ccccc3)c3ccccc3)cc2)cc1` ; wanted: its log10 fluorescence lifetime
Solution: 0.00

Exercise: Moving on to the next compound: `CCCCCCCCCCCCCCCCOc1cc(C#Cc2ccc3ccccc3c2)c(OCCCCCCCCCCCCCCCC)cc1C#Cc1ccc(C=C(C#N)C#N)cc1`
Solution: 0.40

Exercise: Moving on to the next compound: `CCCCCCCCOC(=O)c1ccc(-c2cc3ccc4cc(-c5ccc(C(=O)OCCCCCCCC)cc5)cc5ccc(c2)c3c45)cc1`
Solution: 1.69

Exercise: Moving on to the next compound: `CCCCN1C(=O)c2cc(Oc3ccc(C(C)(C)C)cc3)c3c4c(Oc5ccc(C(C)(C)C)cc5)cc5c(=O)n6c(c7cc(Oc8ccc(C(C)(C)C)cc8)c(c8c(Oc9ccc(C(C)(C)C)cc9)cc(c2c38)C1=O)c4c57)=Cc1cccc[n+]1[B-]6(F)F`
Solution: 0.61

Cited source for all entries: the Deep4Chem optical property database
